Reported inhibition by item:
# system: Amyloid-beta precursor protein (Homo sapiens)
# assayNotes: Inhibition of amyloid beta (1 to 42) (unknown origin) aggregation at 80 uM by ThT-fluorescence assay relative to control
Residues, ends and D or L forms follow the SMILES beside them. *: point of attachment. Trolox = Cc1c(C)c2c(c(C)c1O)CCC(C)(C(=O)*)O2
reportedMetric: inhibition

CC[C@H](C)[C@H](NC(=O)[C@@H](NC(=O)[C@@H](NC(=O)CNC(=O)CNC(=O)[C@@H](NC(=O)[C@H](CCSC)NC(=O)[C@H](CC(C)C)NC(=O)C1(C)CCc2c(C)c(O)c(C)c(C)c2O1)C(C)C)C(C)C)C(C)C)C(=O)N[C@@H](C)C(=O)N[C@H](C(=O)O)[C@@H](C)O (some centres undefined) (Trolox-LMVGGVVIAT-OH)
40.4%
CC[C@H](C)[C@H](NC(=O)[C@@H](NC(=O)[C@@H](NC(=O)CNC(=O)CNC(=O)[C@@H](NC(=O)C1(C)CCc2c(C)c(O)c(C)c(C)c2O1)C(C)C)C(C)C)C(C)C)C(=O)N[C@@H](C)C(=O)O (some centres undefined) (Trolox-VGGVVIA-OH)
17.7%
CC[C@H](C)[C@H](NC(=O)[C@@H](NC(=O)[C@@H](NC(=O)CNC(=O)CNC(=O)[C@@H](NC(=O)C1(C)CCc2c(C)c(O)c(C)c(C)c2O1)C(C)C)C(C)C)C(C)C)C(=O)N[C@@H](C)C(=O)N[C@H](C(=O)O)[C@@H](C)O (some centres undefined) (Trolox-VGGVVIAT-OH)
17.3%
